# Tested on: HCT116 MTAP-/-
# experiment_description: Inhibition of cellular proliferation (Cell Titer Glo), HCT116 MTAP-/-
# Assay type: cell-based, human
# conditions_used: Homo sapiens, HCT-116, 96 h, Table 5a, 4 days, read-out: 4 Day Relative Growth Inhibition (MTAP −/−)
assay_readout: IC50

Consider the worked cases shown below.
{"molecule": "O=C1N(c2ccc3c(c2)OCCO3)Cc2cnc(NCC(F)(F)F)nc2N1c1ccc(-c2nc[nH]n2)cc1 [Example 214]", "observed_value": "100 to 1000 nM"}
{"molecule": "[2H]C([2H])([2H])Oc1ccc(N2C(=O)N(c3ccc4nn(CCOC)cc4c3)Cc3ccc(OCC(F)F)nc32)cc1 [Example 125]", "observed_value": "< 100 nM"}
{"molecule": "Cn1cc2cc(N3Cc4ccc(NCC(F)(F)F)cc4N(c4ccc(OC(F)F)cc4)C3=O)ccc2n1 [Example 288]", "observed_value": "100 to 1000 nM"}
{"molecule": "CCOc1cnc2c(n1)N(c1ccc(Cl)cc1)C(=O)N(c1ccc3nn(C)cc3c1)C2 [Example 413]", "observed_value": "100 to 1000 nM"}
{"molecule": "[2H]C([2H])([2H])Oc1ccc(N2C(=O)N(c3ccc4nc(C)n(C)c4c3)Cc3ccc(OCC(F)F)nc32)cc1 [Example 401]", "observed_value": "< 100 nM"}
{"molecule": "[2H]C([2H])([2H])Oc1ccc(N2Cc3cnc(NCC(F)(F)F)nc3N(c3ccc(-c4nc[nH]n4)cc3)C2=O)cc1 [Example 215]", "observed_value": "100 to 1000 nM"}

IC50 reading for COc1ccc(N2C(=O)N(c3ccc4nn(C)cc4c3)Cc3ccc(OCC(F)F)nc32)cc1 [Example 141] : < 100 nM

====

# tgt: MAT2A homodimer (Homo sapiens, UniProt P31153)
# Construct: inferred from the Ni sepharose purification and imidazole elution; made in house; host or cells: SF9 insect cells, recombinant baculovirus (Bac to Bac, pFASTBAC1)
# Sequence (P31153 whole entry): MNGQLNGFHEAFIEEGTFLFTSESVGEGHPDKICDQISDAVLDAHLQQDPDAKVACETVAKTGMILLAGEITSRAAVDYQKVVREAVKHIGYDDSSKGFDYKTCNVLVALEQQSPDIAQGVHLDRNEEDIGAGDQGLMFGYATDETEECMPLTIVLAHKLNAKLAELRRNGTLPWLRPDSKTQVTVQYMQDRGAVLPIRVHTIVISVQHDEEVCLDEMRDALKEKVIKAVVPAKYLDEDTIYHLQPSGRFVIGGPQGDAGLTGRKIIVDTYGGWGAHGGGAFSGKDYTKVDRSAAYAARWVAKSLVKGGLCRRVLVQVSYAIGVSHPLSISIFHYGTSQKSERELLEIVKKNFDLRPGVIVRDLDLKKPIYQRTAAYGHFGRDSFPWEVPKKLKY
# experiment_description: MAT2A biochemical assay (liberated phosphate, PiColorLock Gold)
# conditions_used: Table 5a; MAT2A biochemical assay; read-out: Enzyme Inhibition
pIC50: −log10 of the molar value.
assay_readout: pIC50

{"compound": "CCOc1ccc2c(n1)N(c1ccc(OC(F)F)nc1)C(=O)N(c1ccc3nn(C)cc3c1)C2 [Example 275]", "pIC50": "> 7.00"}
{"compound": "COc1ccc(N2C(=O)N(c3cn[nH]c3)Cc3cnc(NCC(F)(F)F)nc32)cc1 [Example 231]", "pIC50": "6.00 to 7.00"}
{"compound": "Cn1cc2cc(N3Cc4ccc(OCC(F)F)nc4N(c4ccc5[nH]cc(C#N)c5c4)C3=O)ccc2n1 [Example 410]", "pIC50": "> 7.00"}
{"compound": "[2H]C([2H])([2H])Oc1ccc(N2C(=O)N(c3ccc4nn(C)cc4c3)Cc3ccc(OCC4CC4)nc32)cc1 [Example 164]", "pIC50": "> 7.00"}
{"compound": "Cn1cc2cc(N3Cc4ccc(OCC(F)F)nc4N(c4ccc5[nH]cnc5c4)C3=O)ccc2n1 [Example 404]", "pIC50": "> 7.00"}
{"compound": "CCOc1ccc2c(n1)N(c1ccc(OC(F)F)cc1)C(=O)N(c1ccc(OC)cc1)C2 [Example 130]", "pIC50": "> 7.00"}
{"compound": "[2H]C([2H])([2H])Oc1ccc(N2C(=O)N(c3ccc4nn(CCC)cc4c3)Cc3ccc(OCC(F)F)nc32)cc1 [Example 123]", "pIC50": "> 7.00"}
{"compound": "O=C1N(c2ccc3nccn3c2)Cc2cnc(NCC(F)(F)F)nc2N1c1ccc(C2CC2)cc1 [Example 213]", "pIC50": "> 7.00"}

Kindly note the recorded pIC50 for [2H]C([2H])([2H])Oc1ccc(N2C(=O)N(c3ccc4nn(CCF)cc4c3)Cc3ccc(OCC(F)F)nc32)cc1 [Example 129] , which is > 7.00

Memo: COc1ccc(N2Cc3cnc(NCC(F)(F)F)nc3N(c3ccc(-c4ccsn4)cc3)C2=O)cc1 [Example 207] , reported pIC50: 5.00 to 6.00

Sure, the documented pIC50 for Cn1cc2cc(N3Cc4ccc(OCC(F)F)nc4N(c4ccc(O)cc4)C3=O)ccc2n1 [Example 295] is > 7.00

The recorded pIC50 for COc1ccc(N2Cc3cnc(NCC(F)(F)F)nc3N(c3ccc(OC)cn3)C2=O)cc1 [Example 257] is 6.00 to 7.00

Documented pIC50 of Cn1cc2cc(N3Cc4ccc(OCC(F)F)nc4N(c4ccc5ncn(C)c5c4)C3=O)ccc2n1 [Example 173] : 6.00 to 7.00

compound Cn1cc2cc(N3Cc4ccc(OCC(F)F)nc4N(c4ccc(NC(N)=O)cc4)C3=O)ccc2n1 [Example 412] , pIC50 observed: > 7.00

The recorded pIC50 for COc1ccc(N2Cc3cnc(NCC(F)(F)F)nc3N(c3ccc(Cl)c(Cl)c3)C2=O)cc1 [Example 245] is 5.00 to 6.00

Sure, the documented pIC50 for COc1ccc(N2Cc3cnc(NCC(F)(F)F)nc3N(c3ccc(-c4cscn4)cc3)C2=O)cc1 [Example 210] is 6.00 to 7.00

Data credit: patent US20220098203A1
